Target: N-terminally FLAG-tagged PARP2 (amino acids 1-583) (Homo sapiens)
Construct: N-terminally FLAG-tagged PARP2 (amino acids 1-583)
Sequence (Q9UGN5 whole entry, the tested form may be a part): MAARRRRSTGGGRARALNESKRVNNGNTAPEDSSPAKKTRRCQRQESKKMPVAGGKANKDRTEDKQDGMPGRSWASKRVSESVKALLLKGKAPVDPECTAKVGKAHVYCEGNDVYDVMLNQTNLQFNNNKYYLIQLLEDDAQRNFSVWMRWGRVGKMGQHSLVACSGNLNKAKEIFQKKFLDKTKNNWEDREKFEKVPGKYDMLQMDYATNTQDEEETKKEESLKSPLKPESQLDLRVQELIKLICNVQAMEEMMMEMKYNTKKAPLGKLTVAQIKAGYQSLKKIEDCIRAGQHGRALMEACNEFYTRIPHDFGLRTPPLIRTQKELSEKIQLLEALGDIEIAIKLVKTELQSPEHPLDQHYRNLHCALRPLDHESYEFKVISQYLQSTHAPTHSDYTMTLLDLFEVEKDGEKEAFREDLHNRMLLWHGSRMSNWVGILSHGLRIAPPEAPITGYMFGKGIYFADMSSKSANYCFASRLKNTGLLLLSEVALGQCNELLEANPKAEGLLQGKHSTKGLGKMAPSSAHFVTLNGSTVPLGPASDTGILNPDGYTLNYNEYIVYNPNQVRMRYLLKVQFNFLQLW
Test: PARP2 probe displacement HTRF assay
Type: binding
Conditions: binned Kd, PARP2 probe displacement HTRF
pKd: −log10 of the molar value.
readoutType: pKd

compound="CNC(=O)c1ccc(N2CCC(N3CCC(c4nc5ccccc5c(=O)[nH]4)C3)CC2)cn1 (single isomer, unassigned) [Compound 10a]" testedtarget="N-terminally FLAG-tagged PARP2 (amino acids 1-583) (Homo sapiens)" readouttype=pKd reportedresult="6.00 to 7.00"
compound="CNC(=O)c1ccc(N2CCC(N3CCCC(c4nc5ccccc5c(=O)[nH]4)C3)CC2)c(C)n1 (single isomer, unassigned) [Compound 131a]" testedtarget="N-terminally FLAG-tagged PARP2 (amino acids 1-583) (Homo sapiens)" readouttype=pKd reportedresult="5.00 to 6.00"
compound="O=c1[nH]c(C2CCN(C3CCN(c4ccc(-c5ncc[nH]5)cc4)CC3)C2)nc2ccccc12 (single isomer, unassigned) [Compound 76a]" testedtarget="N-terminally FLAG-tagged PARP2 (amino acids 1-583) (Homo sapiens)" readouttype=pKd reportedresult="6.00 to 7.00"
